experimentalSystem: 5-HT2C (Homo sapiens, UniProt P28335)
Sequence (P28335 33-458): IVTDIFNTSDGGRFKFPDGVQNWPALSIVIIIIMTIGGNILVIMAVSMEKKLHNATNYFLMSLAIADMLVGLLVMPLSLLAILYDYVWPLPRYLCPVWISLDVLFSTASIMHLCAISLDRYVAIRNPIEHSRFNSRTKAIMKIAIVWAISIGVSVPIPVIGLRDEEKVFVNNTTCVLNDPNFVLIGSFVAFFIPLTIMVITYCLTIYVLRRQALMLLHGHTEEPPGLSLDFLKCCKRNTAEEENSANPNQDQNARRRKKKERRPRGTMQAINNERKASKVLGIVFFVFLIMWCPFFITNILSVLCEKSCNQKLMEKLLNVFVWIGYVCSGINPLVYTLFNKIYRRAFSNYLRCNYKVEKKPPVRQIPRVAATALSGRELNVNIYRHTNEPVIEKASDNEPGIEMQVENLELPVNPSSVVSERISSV
assayMethodText: Gq signaling bias for 5-HT2C (Gq-coupled versus B-arrestin signaling)
Assay type: cell-based
conditionNotes: primary signaling for 5-HT2C via Gq-coupled mechanism compared to B-arrestin
endpointName: Gq signaling bias?

Observe how each entry below is paired with its result.
{"compound": "Cl.c1ccc2c(C3CCNC3)csc2c1 (centres unmarked)", "Gq signaling bias?": "Yes"}
{"compound": "C1=C(c2csc3ccccc23)CNC1", "Gq signaling bias?": "Yes"}
{"compound": "C1=C(c2c[nH]c3ncccc23)CNC1", "Gq signaling bias?": "No"}
{"compound": "Fc1cnc2[nH]cc(C3=CCNC3)c2c1", "Gq signaling bias?": "No"}

Tell us which Gq signaling bias? value is on record for `CN1CC(c2csc3ccccc23)C1.Cl`
Yes

Sourced from patent US20250289817A1
